Assay: Plasma kinetic study of colchicine with and without Schisandrin A
Type: in vivo
Details: male, Sprague Dawley, rat, po, 3 mg/kg, Group2, rats, Schisandrin A 0 mg/kg oral 5 min before colchicine 3.0 mg/kg oral, read-out: MRT0→∞ of colchicine
Experimental: 42 Male Sprague Dawley rats (weight, 170-210 g) were maintained on a 12-h light/dark cycle with free access to water and lab chow for 10-14 h prior to the experiment. Rats were randomly divided into 7 groups (n=6 each) and groups 2-7 received 0 mg/kg, 6.3 mg/kg, and 12.6 mg/kg, 25.2 mg/kg, 50.4 mg/kg and 63.0 mg/kg of Schisandrin A in 1% CMC-Na (300-800 cps) via oral administration, respectively. […]
READOUT_NAME: MRT inf

[[record]]
molecule = "COc1cc2c(c(OC)c1OC)-c1ccc(OC)c(=O)cc1[C@@H](NC(C)=O)CC2 [colchicine]"
readout_name = "MRT inf"
result = "6.86 h"

